Data credit: patent US11319315B2

Please go through the items and note down their IC50.
TARGET UNDER TEST: human LPA1 (Homo sapiens, UniProt Q92633)
Construct: expressed in transfected cells; host or cells: Chinese hamster ovary (CHO) cells
Sequence (Q92633 whole entry): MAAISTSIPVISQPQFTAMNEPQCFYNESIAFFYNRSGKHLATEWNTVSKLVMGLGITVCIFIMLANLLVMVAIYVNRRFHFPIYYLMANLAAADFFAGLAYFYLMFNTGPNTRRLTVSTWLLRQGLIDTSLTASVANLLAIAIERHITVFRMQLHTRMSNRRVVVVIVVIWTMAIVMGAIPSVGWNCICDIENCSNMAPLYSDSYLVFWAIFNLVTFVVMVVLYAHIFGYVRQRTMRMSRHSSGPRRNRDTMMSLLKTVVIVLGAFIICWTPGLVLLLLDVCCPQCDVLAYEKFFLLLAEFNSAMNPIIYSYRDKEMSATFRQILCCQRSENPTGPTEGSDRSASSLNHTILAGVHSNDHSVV
METHOD SUMMARY: LPA1 functional antagonist assay (LPA-induced calcium flux in CHO cells overexpressing human LPA1)
Assay type: cell-based
EXPERIMENTAL PARAMETERS: inhibition of calcium flux induced by 10 nM LPA, CHO cells overexpressing human LPA1; read-out: hLPA1 IC50

Query Cc1nc(-c2nnn(C)c2Cn2nncc2CC(C)C)ccc1O[C@H]1CCC[C@H](C(=O)O)C1 [Example 261] yields IC50 of 115 nM

Query Cc1nc(-c2nnn(C)c2Cn2ncnc2C2CC2)ccc1O[C@H]1CCC[C@H](C(=O)O)C1 [Example 206] yields IC50 of 1090 nM

Query Cc1nc(-c2nnn(C)c2Cn2cc(Cc3ccccc3)nn2)ccc1O[C@H]1CCC[C@H](C(=O)O)C1 [Example 81] yields IC50 of 37 nM

Query Cc1nc(-c2nnn(C)c2Cn2sc(C3CC3)nc2=N)ccc1O[C@H]1CCC[C@H](C(=O)O)C1 [Example 274] yields IC50 of 1000 nM

Query Cc1nc(-c2nnn(C)c2CNc2ncn(Cc3ccccc3)n2)ccc1O[C@H]1CCC[C@H](C(=O)O)C1 [Example 34] yields IC50 of 332 nM

Query Cc1nc(-c2nnn(C)c2CNc2ncn(-c3ccccc3)n2)ccc1O[C@H]1CCC[C@H](C(=O)O)C1 [Example 38] yields IC50 of 34 nM

Query Cc1nc(-c2nnn(C)c2CNc2ncc(-c3ccccn3)o2)ccc1O[C@H]1CCC[C@H](C(=O)O)C1 [Example 20] yields IC50 of 99 nM

====

TARGET UNDER TEST: human LPA1 (Homo sapiens)
Construct: expressed in transfected cells; host or cells: Chinese hamster ovary (CHO) cells
METHOD SUMMARY: LPA1 functional antagonist assay (LPA-induced calcium flux in CHO cells overexpressing human LPA1)
Format: cell-based
EXPERIMENTAL PARAMETERS: inhibition of calcium flux induced by 10 nM LPA, CHO cells overexpressing human LPA1; read-out: hLPA1 IC50
QUANTITY: pIC50
Scale explanation: pIC50 corresponds to minus log10 of a concentration expressed in moles per litre.

Query CCc1nsc(NCc2c(-c3ccc(O[C@H]4CCC[C@H](C(=O)O)C4)c(C)n3)nnn2C)n1 [Example 118] yields pIC50 of 6.04

Query Cc1nc(-c2nnn(C)c2CNc2noc(CCC(C)(C)F)n2)ccc1O[C@H]1CCC[C@H](C(=O)O)C1 [Example 179] yields pIC50 of 7.36

Query Cc1nc(-c2nnn(C)c2Cn2nnnc2-c2cccc(F)c2)ccc1O[C@H]1CCC[C@H](C(=O)O)C1 [Example 321] yields pIC50 of 6.37

Query Cc1nc(-c2nnn(C)c2Cc2noc(CC(C)C)n2)ccc1O[C@H]1CCC[C@H](C(=O)O)C1 [Example 234] yields pIC50 of 7.28

====

TARGET UNDER TEST: human LPA1 (Homo sapiens)
Construct: expressed in transfected cells; host or cells: Chinese hamster ovary (CHO) cells
METHOD SUMMARY: LPA1 functional antagonist assay (LPA-induced calcium flux in CHO cells overexpressing human LPA1)
Format: cell-based
EXPERIMENTAL PARAMETERS: read-out: hLPA1 IC50
QUANTITY: IC50 (nM)
Numeric only. Scale: nM

Query COCCCn1nnc(Cc2c(-c3ccc(O[C@H]4CCC[C@H](C(=O)O)C4)c(C)n3)nnn2C)n1 yields IC50 of 1120

Query Cc1nc(-c2nnn(C)c2CNc2nnnn2CC2CC2)ccc1O[C@H]1CCC[C@H](C(=O)O)C1 yields IC50 of 300

Query CCCCn1nnc(Cc2c(-c3ccc(O[C@H]4CCC[C@H](C(=O)O)C4)c(C)n3)nnn2C)n1 yields IC50 of 43

Query C=CCn1nnc(NCc2c(-c3ccc(O[C@H]4CCC[C@H](C(=O)O)C4)c(C)n3)nnn2C)n1 yields IC50 of 167

====

TARGET UNDER TEST: human LPA1 (Homo sapiens, UniProt Q92633)
Construct: expressed in transfected cells; host or cells: Chinese hamster ovary (CHO) cells
METHOD SUMMARY: LPA1 functional antagonist assay (LPA-induced calcium flux in CHO cells overexpressing human LPA1)
Format: cell-based
EXPERIMENTAL PARAMETERS: inhibition of calcium flux induced by 10 nM LPA, CHO cells overexpressing human LPA1; read-out: hLPA1 IC50
Please use the following IC50 ranges when assigning a class: band A = under 60 nM, band B = from 60 nM up to 200 nM, band C = 200 nM and over

Class? Entry: Cc1nc(-c2nnn(C)c2Cn2cnnc2CC2CC2)ccc1O[C@H]1CCC[C@H](C(=O)O)C1
band C

Class? Entry: Cc1nc(-c2nnn(C)c2Cn2nnnc2CC(C)C)ccc1O[C@H]1CCC[C@H](C(=O)O)C1
band B

Class? Entry: Cc1nc(-c2nnn(C)c2Cn2nnc(C3CCC3)n2)ccc1O[C@H]1CCC[C@H](C(=O)O)C1
band A

Class? Entry: Cc1nc(-c2nnn(C)c2CNc2nnc(-c3ccccc3)o2)ccc1O[C@H]1CCC[C@H](C(=O)O)C1
band B

Class? Entry: Cc1nc(-c2nnn(C)c2CNc2noc(C3CC34CC4)n2)ccc1O[C@H]1CCC[C@H](C(=O)O)C1 (stereo partly drawn) [Example 205]
band A

Class? Entry: CCCCc1nnc(Cc2c(-c3ccc(O[C@H]4CCC[C@H](C(=O)O)C4)c(C)n3)nnn2C)o1
band C

Class? Entry: CCOC(C)c1nc(NCc2c(-c3ccc(O[C@H]4CCC[C@H](C(=O)O)C4)c(C)n3)nnn2C)no1 (mixture of isomers)
band B

Class? Entry: Cc1nc(-c2nnn(C)c2Cn2nnc(OCCC3CC3)n2)ccc1O[C@H]1CCC[C@H](C(=O)O)C1
band A

Class? Entry: Cc1nc(-c2nnn(C)c2Cn2nnc(OCC3CC(F)(F)C3)n2)ccc1O[C@H]1CCC[C@@H](C(=O)O)C1
band C

Class? Entry: Cc1nc(-c2nnn(C)c2CNc2noc(C3CCC(F)(F)C3)n2)ccc1O[C@H]1CCC[C@H](C(=O)O)C1 (stereo partly drawn)
band B

Class? Entry: Cc1nc(-c2nnn(C)c2Cn2ncc(-c3ccccc3)n2)ccc1O[C@H]1CCC[C@H](C(=O)O)C1
band A

Class? Entry: Cc1nc(-c2nnn(C)c2CNc2noc(C3(C)CC3)n2)ccc1O[C@H]1CCC[C@H](C(=O)O)C1
band C

Class? Entry: Cn1nnc(-c2ccc(O[C@H]3CCC[C@H](C(=O)O)C3)cn2)c1CNc1noc(C2CCCC2)n1
band A

Class? Entry: Cc1nc(-c2nnn(C)c2Cn2nnc(OC3CC3)n2)ccc1O[C@H]1CCC[C@@H](C(=O)O)C1
band B

====

TARGET UNDER TEST: human LPA1 (Homo sapiens)
Construct: expressed in transfected cells; host or cells: Chinese hamster ovary (CHO) cells
METHOD SUMMARY: LPA1 functional antagonist assay (LPA-induced calcium flux in CHO cells overexpressing human LPA1)
Type: cell-based
EXPERIMENTAL PARAMETERS: inhibition of calcium flux induced by 10 nM LPA, CHO cells overexpressing human LPA1; read-out: hLPA1 IC50
QUANTITY: IC50 (µM)
Numeric only. Scale: µM

Query Cc1nc(-c2nnn(C)c2Cc2nnc(C3CCCC3)o2)ccc1O[C@H]1CCC[C@H](C(=O)O)C1 yields IC50 of 0.289

Query Cc1nc(-c2nnn(C)c2Cn2nnc(N3CCCC3)n2)ccc1O[C@H]1CCC[C@H](C(=O)O)C1 yields IC50 of 0.234

Query C=C(C)c1cnn(Cc2c(-c3ccc(O[C@H]4CCC[C@H](C(=O)O)C4)c(C)n3)nnn2C)n1 yields IC50 of 0.136

Query Cc1nc(-c2nnn(C)c2COc2nnnn2CC(C)C)ccc1O[C@H]1CCC[C@H](C(=O)O)C1 yields IC50 of 0.094

Query CCCC(C)c1nc(NCc2c(-c3ccc(O[C@H]4CCC[C@H](C(=O)O)C4)cn3)nnn2C)no1 (mixture of isomers) yields IC50 of 0.0594

Query CCCc1cn(Cc2c(-c3ccc(O[C@H]4CCC[C@H](C(=O)O)C4)c(C)n3)nnn2C)nn1 [Example 269] yields IC50 of 0.076

Query Cc1nc(-c2nnn(C)c2Cn2nnc(CC3CCC3)n2)ccc1O[C@H]1CCC[C@H](C(=O)O)C1 yields IC50 of 0.102

Query Cc1nc(-c2nnn(C)c2CNc2cn(CC(C)C)nn2)ccc1O[C@H]1CCC[C@H](C(=O)O)C1 yields IC50 of 0.435

Query Cc1nc(-c2nnn(C)c2Cc2noc(CCC(F)(F)F)n2)ccc1O[C@H]1CCC[C@H](C(=O)O)C1 yields IC50 of 0.061

Query Cc1nc(-c2nnn(C)c2Cn2cc(C3CC3)nn2)ccc1O[C@H]1CCC[C@H](C(=O)O)C1 yields IC50 of 2.21

Query Cc1nc(-c2nnn(C)c2Cn2nnnc2COc2ccccc2)ccc1O[C@H]1CCC[C@H](C(=O)O)C1 yields IC50 of 0.124

Query Cc1nc(-c2nnn(C)c2CNc2noc(CCC(C)C)n2)ccc1O[C@H]1CCC[C@H](C(=O)O)C1 yields IC50 of 0.015

Query Cc1nc(-c2nnn(C)c2COc2noc(C3CC3)n2)ccc1O[C@H]1CCC[C@H](C(=O)O)C1 yields IC50 of 0.025

Query CCCCOc1nnn(Cc2c(-c3ccc(O[C@H]4CCC[C@H](C(=O)O)C4)c(C)n3)nnn2C)n1 yields IC50 of 0.032

Query Cc1nc(-c2nnn(C)c2CNc2noc(COC3CC3)n2)ccc1O[C@H]1CCC[C@H](C(=O)O)C1 yields IC50 of 0.034
